Please go through the items and note down their protein stability index.
B1: KRT18 (parent)
chain: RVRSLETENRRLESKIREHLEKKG

- Variants of: B1
- assay: protein stability index of a GFP-peptide fusion (GPS, HEK-293T) (PSI 1-6); higher = more stable;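 also: lentivirally expressed fusions sorted by FACS into six bins by GFP to DsRed ratio, PSI derived from sequencing read proportions per bin multiplied by bin number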
- condition.details: c terminus: a fixed tail appended
Keep the answer to the number alone.

INPUT: I have this variant here, `E18G` , and I need its recorded protein stability index.
OUTPUT: 4.91

INPUT: I have this variant here, `E8H` , and I need its recorded protein stability index.
OUTPUT: 4.36

INPUT: I have this variant here, `E6N` , and I need its recorded protein stability index.
OUTPUT: 3.33

INPUT: I have this variant here, `S14P` , and I need its recorded protein stability index.
OUTPUT: 4.86

INPUT: I have this variant here, `R11C` , and I need its recorded protein stability index.
OUTPUT: 4.96

INPUT: I have this variant here, `R3H` , and I need its recorded protein stability index.
OUTPUT: 3.61

INPUT: I have this variant here, `G24V` , and I need its recorded protein stability index.
OUTPUT: 4.01

INPUT: I have this variant here, `V2W` , and I need its recorded protein stability index.
OUTPUT: 3.9

INPUT: I have this variant here, `E6M` , and I need its recorded protein stability index.
OUTPUT: 3.4

INPUT: I have this variant here, `R17H` , and I need its recorded protein stability index.
OUTPUT: 5.06

INPUT: I have this variant here, `L5F` , and I need its recorded protein stability index.
OUTPUT: 4.5

INPUT: I have this variant here, `E8T` , and I need its recorded protein stability index.
OUTPUT: 4.2

INPUT: I have this variant here, `K15T` , and I need its recorded protein stability index.
OUTPUT: 4.76

INPUT: I have this variant here, `R1H` , and I need its recorded protein stability index.
OUTPUT: 4.14

INPUT: I have this variant here, `S14A` , and I need its recorded protein stability index.
OUTPUT: 4.6

INPUT: I have this variant here, `E21C` , and I need its recorded protein stability index.
OUTPUT: 4.28

INPUT: I have this variant here, `E8G` , and I need its recorded protein stability index.
OUTPUT: 4.42

INPUT: I have this variant here, `E21S` , and I need its recorded protein stability index.
OUTPUT: 4.36

INPUT: I have this variant here, `N9Y` , and I need its recorded protein stability index.
OUTPUT: 3.85

INPUT: I have this variant here, `N9D` , and I need its recorded protein stability index.
OUTPUT: 5.09

INPUT: I have this variant here, `V2I` , and I need its recorded protein stability index.
OUTPUT: 4.21

INPUT: I have this variant here, `S4K` , and I need its recorded protein stability index.
OUTPUT: 4.26

INPUT: I have this variant here, `K22L` , and I need its recorded protein stability index.
OUTPUT: 4.12

INPUT: I have this variant here, `N9M` , and I need its recorded protein stability index.
OUTPUT: 2.85

INPUT: I have this variant here, `T7S` , and I need its recorded protein stability index.
OUTPUT: 4.25

INPUT: I have this variant here, `S4V` , and I need its recorded protein stability index.
OUTPUT: 3.54

INPUT: I have this variant here, `I16N` , and I need its recorded protein stability index.
OUTPUT: 5.56

INPUT: I have this variant here, `L5W` , and I need its recorded protein stability index.
OUTPUT: 4.29

INPUT: I have this variant here, `K15I` , and I need its recorded protein stability index.
OUTPUT: 4.41

INPUT: I have this variant here, `G24L` , and I need its recorded protein stability index.
OUTPUT: 4.03

INPUT: I have this variant here, `L12K` , and I need its recorded protein stability index.
OUTPUT: 5.49

INPUT: I have this variant here, `K23V` , and I need its recorded protein stability index.
OUTPUT: 4.14

INPUT: I have this variant here, `E18A` , and I need its recorded protein stability index.
OUTPUT: 4.46

INPUT: I have this variant here, `R17M` , and I need its recorded protein stability index.
OUTPUT: 4.53

INPUT: I have this variant here, `E13G` , and I need its recorded protein stability index.
OUTPUT: 4.75

INPUT: I have this variant here, `R3Y` , and I need its recorded protein stability index.
OUTPUT: 3.15

INPUT: I have this variant here, `T7D` , and I need its recorded protein stability index.
OUTPUT: 4.17

INPUT: I have this variant here, `L20F` , and I need its recorded protein stability index.
OUTPUT: 4.59

INPUT: I have this variant here, `L20E` , and I need its recorded protein stability index.
OUTPUT: 5.7

INPUT: I have this variant here, `E6P` , and I need its recorded protein stability index.
OUTPUT: 4.44

INPUT: I have this variant here, `L12V` , and I need its recorded protein stability index.
OUTPUT: 4.69

INPUT: I have this variant here, `S4P` , and I need its recorded protein stability index.
OUTPUT: 4.58

INPUT: I have this variant here, `R10I` , and I need its recorded protein stability index.
OUTPUT: 4.42

INPUT: I have this variant here, `I16C` , and I need its recorded protein stability index.
OUTPUT: 4.79

INPUT: I have this variant here, `E18T` , and I need its recorded protein stability index.
OUTPUT: 4.25

INPUT: I have this variant here, `T7E` , and I need its recorded protein stability index.
OUTPUT: 5.17

INPUT: I have this variant here, `R11W` , and I need its recorded protein stability index.
OUTPUT: 3.69

INPUT: I have this variant here, `R17G` , and I need its recorded protein stability index.
OUTPUT: 5.38

INPUT: I have this variant here, `L12N` , and I need its recorded protein stability index.
OUTPUT: 5.35

INPUT: I have this variant here, `R3E` , and I need its recorded protein stability index.
OUTPUT: 4.85

INPUT: I have this variant here, `G24I` , and I need its recorded protein stability index.
OUTPUT: 3.83

INPUT: I have this variant here, `E13D` , and I need its recorded protein stability index.
OUTPUT: 2.98

INPUT: I have this variant here, `E18I` , and I need its recorded protein stability index.
OUTPUT: 4.29

INPUT: I have this variant here, `N9L` , and I need its recorded protein stability index.
OUTPUT: 1.79

INPUT: I have this variant here, `R11V` , and I need its recorded protein stability index.
OUTPUT: 4.79

INPUT: I have this variant here, `E18W` , and I need its recorded protein stability index.
OUTPUT: 4.51

INPUT: I have this variant here, `L12I` , and I need its recorded protein stability index.
OUTPUT: 4.77

INPUT: I have this variant here, `E8A` , and I need its recorded protein stability index.
OUTPUT: 4.08

INPUT: I have this variant here, `R11S` , and I need its recorded protein stability index.
OUTPUT: 5.33

INPUT: I have this variant here, `R11Y` , and I need its recorded protein stability index.
OUTPUT: 3.33

INPUT: I have this variant here, `S14W` , and I need its recorded protein stability index.
OUTPUT: 3.98

INPUT: I have this variant here, `S14N` , and I need its recorded protein stability index.
OUTPUT: 3.68

INPUT: I have this variant here, `K15E` , and I need its recorded protein stability index.
OUTPUT: 5.16

INPUT: I have this variant here, `K15H` , and I need its recorded protein stability index.
OUTPUT: 3.6

INPUT: I have this variant here, `R10N` , and I need its recorded protein stability index.
OUTPUT: 4.69

INPUT: I have this variant here, `H19Q` , and I need its recorded protein stability index.
OUTPUT: 5.04

INPUT: I have this variant here, `K22S` , and I need its recorded protein stability index.
OUTPUT: 4.05

INPUT: I have this variant here, `V2Q` , and I need its recorded protein stability index.
OUTPUT: 4.44

INPUT: I have this variant here, `E8M` , and I need its recorded protein stability index.
OUTPUT: 4.32

INPUT: I have this variant here, `R1Y` , and I need its recorded protein stability index.
OUTPUT: 1.78

INPUT: I have this variant here, `E13T` , and I need its recorded protein stability index.
OUTPUT: 4.1

INPUT: I have this variant here, `E18R` , and I need its recorded protein stability index.
OUTPUT: 3.99

INPUT: I have this variant here, `I16M` , and I need its recorded protein stability index.
OUTPUT: 5.17

INPUT: I have this variant here, `V2A` , and I need its recorded protein stability index.
OUTPUT: 4.64

INPUT: I have this variant here, `R17P` , and I need its recorded protein stability index.
OUTPUT: 4.84

INPUT: I have this variant here, `S4R` , and I need its recorded protein stability index.
OUTPUT: 4.29

INPUT: I have this variant here, `R3W` , and I need its recorded protein stability index.
OUTPUT: 3.43

INPUT: I have this variant here, `R1F` , and I need its recorded protein stability index.
OUTPUT: 1.21
